Exercise: state measured Ki for each of the molecules provided.
Molecular target: Adenosine receptor A2a (Rattus norvegicus)
Sequence (P30543 whole entry): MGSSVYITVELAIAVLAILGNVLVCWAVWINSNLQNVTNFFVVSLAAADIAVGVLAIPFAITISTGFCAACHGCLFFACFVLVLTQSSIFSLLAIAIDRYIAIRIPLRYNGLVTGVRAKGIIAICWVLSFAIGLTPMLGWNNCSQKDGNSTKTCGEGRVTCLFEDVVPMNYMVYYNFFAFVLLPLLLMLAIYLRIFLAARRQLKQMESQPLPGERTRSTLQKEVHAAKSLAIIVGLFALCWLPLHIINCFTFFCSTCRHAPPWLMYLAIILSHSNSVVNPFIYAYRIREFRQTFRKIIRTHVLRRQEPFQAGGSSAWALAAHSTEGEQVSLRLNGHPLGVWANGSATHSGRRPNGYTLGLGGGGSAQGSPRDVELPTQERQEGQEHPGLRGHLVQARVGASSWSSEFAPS

Report Ki for `CCCCC(=O)Nc1nc2ccc(Cl)cc2c2nc(-c3ccco3)nn12` tested on Adenosine receptor A2a (Rattus norvegicus).
48.8 nM

Report Ki for `NCCCC(=O)Nc1nc2ccc(Cl)cc2c2nc(-c3ccco3)nn12` tested on Adenosine receptor A2a (Rattus norvegicus).
14.4 nM

Report Ki for `CC(=O)Nc1nc2ccc(Cl)cc2c2nc(-c3ccco3)nn12` tested on Adenosine receptor A2a (Rattus norvegicus).
36.3 nM

Report Ki for `CCCn1c(=O)n2nc(-c3ccco3)nc2c2cc(Cl)ccc21` tested on Adenosine receptor A2a (Rattus norvegicus).
6960 nM

----------
Molecular target: Adenosine receptor A3 (Rattus norvegicus)
Sequence (P28647 whole entry): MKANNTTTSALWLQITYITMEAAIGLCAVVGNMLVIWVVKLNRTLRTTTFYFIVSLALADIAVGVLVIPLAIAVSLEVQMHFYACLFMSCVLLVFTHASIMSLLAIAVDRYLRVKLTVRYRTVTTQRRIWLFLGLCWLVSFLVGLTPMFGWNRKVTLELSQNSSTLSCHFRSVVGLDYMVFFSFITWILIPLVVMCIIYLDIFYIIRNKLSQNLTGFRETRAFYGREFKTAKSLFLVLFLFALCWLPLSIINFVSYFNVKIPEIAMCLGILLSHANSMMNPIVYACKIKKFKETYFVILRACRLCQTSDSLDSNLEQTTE
propertyName: Ki (µM)
Value expressed in µM; do not type the unit.

I'd like to know its Ki. The molecule in question is `Nc1nc2ccc(Cl)cc2c2nc(-c3ccco3)nn12`
100

----------
Target: Adenosine receptor A1 (Rattus norvegicus)
Sequence (P25099 whole entry): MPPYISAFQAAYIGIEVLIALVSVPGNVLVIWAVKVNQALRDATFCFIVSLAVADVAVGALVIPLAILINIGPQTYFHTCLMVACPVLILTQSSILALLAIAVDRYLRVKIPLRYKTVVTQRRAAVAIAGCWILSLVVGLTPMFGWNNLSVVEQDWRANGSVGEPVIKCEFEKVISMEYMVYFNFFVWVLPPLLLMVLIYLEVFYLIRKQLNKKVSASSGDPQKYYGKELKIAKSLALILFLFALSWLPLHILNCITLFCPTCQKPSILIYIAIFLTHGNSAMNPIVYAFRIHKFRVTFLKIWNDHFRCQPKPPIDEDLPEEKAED
Assay: Binding affinity for Adenosine A1 receptor from rat cerebral cortex membranes using [3H](R)-PIA
Type: tissue-based
propertyName: Ki

I'd like to know its Ki. The compound in question is `Cc1ccc(-c2oc3ccc(Cl)cc3c(=O)c2Cl)c(OC(C)C)c1`
> 100 µM

----------
Target: Adenosine receptor A1 (Rattus norvegicus)
propertyName: pIC50
Just the number, please; pIC50 means minus log10 of the concentration in mol/L.

I'd like to know its pIC50. The molecule in question is CCOC(=O)C1=C(c2ccccc2)Nc2cc(C)c(C(=O)OCC)cc2C1/C=C/c1ccccc1 (stereo unspecified)
8.23

----------
Test: Relative binding to rat A1 and human A3 adenosine receptors (ratio of IC50)
Mark yes only for Ratio values smaller than 2; exact matches and larger values are no.

Confirm or reject: Ratio of `CCC(=O)Nc1nc2ccc(Cl)cc2c2nc(-c3ccco3)nn12` lies strictly below 2
no

Confirm or reject: Ratio of `CCCn1c(=O)n2nc(-c3ccco3)nc2c2cc(Cl)ccc21` lies strictly below 2
yes

Confirm or reject: Ratio of `CCCC(=O)Nc1nc2ccc(Cl)cc2c2nc(-c3ccco3)nn12` lies strictly below 2
no

Confirm or reject: Ratio of `CCCCC(=O)Nc1nc2ccc(Cl)cc2c2nc(-c3ccco3)nn12` lies strictly below 2
yes

Confirm or reject: Ratio of `NCCCC(=O)Nc1nc2ccc(Cl)cc2c2nc(-c3ccco3)nn12` lies strictly below 2
yes

----------
Target chain: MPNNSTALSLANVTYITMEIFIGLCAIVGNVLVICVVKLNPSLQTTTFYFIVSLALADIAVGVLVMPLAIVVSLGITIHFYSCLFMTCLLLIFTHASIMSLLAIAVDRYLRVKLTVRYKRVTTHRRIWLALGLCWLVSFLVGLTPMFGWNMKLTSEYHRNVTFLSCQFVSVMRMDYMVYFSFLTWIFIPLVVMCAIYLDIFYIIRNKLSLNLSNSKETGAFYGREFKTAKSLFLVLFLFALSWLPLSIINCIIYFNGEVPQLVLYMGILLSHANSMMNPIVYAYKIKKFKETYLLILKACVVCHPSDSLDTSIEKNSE
Exercise: state measured Ki for each of the compounds provided.
Value expressed in nM; do not type the unit.

I'd like to know its Ki. The compound in question is CCOC(=O)C1=C(c2ccccc2)Nc2cc(C)c(C(=O)OCC)cc2C1/C=C/c1ccccc1 (stereo not given)
0.11

I'd like to know its Ki. The compound in question is `NCCCC(=O)Nc1nc2ccc(Cl)cc2c2nc(-c3ccco3)nn12`
80.8

I'd like to know its Ki. The compound in question is `CC(C)(C)OC(=O)NCCCC(=O)Nc1nc2ccc(Cl)cc2c2nc(-c3ccco3)nn12`
32.9

I'd like to know its Ki. The compound in question is `CCCn1c(=O)n2nc(-c3ccco3)nc2c2cc(Cl)ccc21`
1810

I'd like to know its Ki. The compound in question is `O=C(Nc1nc2ccc(Cl)cc2c2nc(-c3ccco3)nn12)c1cccc(I)c1`
23.8
